Target: KCNQ2/3 channels (Homo sapiens, UniProt O43525+O43526)
Construct: expressed in transfected cells
Sequence (O43526 whole entry): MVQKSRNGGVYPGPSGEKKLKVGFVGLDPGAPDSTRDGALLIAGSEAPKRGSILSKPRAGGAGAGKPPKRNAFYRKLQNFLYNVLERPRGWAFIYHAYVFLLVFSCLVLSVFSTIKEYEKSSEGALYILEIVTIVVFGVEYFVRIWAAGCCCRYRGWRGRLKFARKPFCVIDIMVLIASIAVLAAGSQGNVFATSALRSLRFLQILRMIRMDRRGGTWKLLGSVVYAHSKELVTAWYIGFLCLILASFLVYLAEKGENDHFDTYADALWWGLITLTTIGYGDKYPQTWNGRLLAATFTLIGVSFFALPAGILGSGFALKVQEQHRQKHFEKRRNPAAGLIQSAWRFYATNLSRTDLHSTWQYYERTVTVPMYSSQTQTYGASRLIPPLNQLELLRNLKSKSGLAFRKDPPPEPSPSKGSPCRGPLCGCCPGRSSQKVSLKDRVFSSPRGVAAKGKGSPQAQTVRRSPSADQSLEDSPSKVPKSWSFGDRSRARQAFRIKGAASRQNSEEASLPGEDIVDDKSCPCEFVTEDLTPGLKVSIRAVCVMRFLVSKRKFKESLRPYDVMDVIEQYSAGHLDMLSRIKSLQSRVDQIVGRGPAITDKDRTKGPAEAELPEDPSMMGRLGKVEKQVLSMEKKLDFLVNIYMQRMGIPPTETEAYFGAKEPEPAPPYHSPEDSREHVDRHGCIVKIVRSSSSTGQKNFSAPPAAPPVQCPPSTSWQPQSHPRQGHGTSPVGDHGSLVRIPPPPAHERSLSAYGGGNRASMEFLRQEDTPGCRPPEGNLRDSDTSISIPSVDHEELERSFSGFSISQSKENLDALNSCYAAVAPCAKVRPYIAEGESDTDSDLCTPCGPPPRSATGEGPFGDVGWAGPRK
Sequence (O43525 whole entry): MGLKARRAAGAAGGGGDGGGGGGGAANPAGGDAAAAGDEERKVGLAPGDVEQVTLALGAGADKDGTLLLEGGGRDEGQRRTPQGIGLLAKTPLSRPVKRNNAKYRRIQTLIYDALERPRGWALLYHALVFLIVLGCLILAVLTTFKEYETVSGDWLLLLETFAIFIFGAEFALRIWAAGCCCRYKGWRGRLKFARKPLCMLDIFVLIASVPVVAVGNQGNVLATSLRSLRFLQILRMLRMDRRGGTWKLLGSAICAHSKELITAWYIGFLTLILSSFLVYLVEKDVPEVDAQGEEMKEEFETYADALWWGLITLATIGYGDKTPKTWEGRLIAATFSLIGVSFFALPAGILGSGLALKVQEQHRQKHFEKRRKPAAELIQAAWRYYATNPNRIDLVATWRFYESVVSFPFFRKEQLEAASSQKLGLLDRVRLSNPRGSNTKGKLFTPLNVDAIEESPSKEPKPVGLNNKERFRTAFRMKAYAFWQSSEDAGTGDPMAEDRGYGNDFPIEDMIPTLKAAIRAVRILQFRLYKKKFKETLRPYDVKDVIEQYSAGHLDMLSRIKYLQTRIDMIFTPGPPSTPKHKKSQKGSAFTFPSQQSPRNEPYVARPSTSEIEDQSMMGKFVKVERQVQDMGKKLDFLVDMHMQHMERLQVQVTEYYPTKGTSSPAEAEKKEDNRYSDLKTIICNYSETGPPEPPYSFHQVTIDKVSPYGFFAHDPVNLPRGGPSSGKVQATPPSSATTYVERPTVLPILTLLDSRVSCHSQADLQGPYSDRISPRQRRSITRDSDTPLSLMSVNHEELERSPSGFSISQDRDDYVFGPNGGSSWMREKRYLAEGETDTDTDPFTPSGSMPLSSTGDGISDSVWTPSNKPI
Experiment: Fluorescence assay using a voltage sensitive dye (fluorimetry)
Format: cell-based
Conditions: CHO-K1 cells expressing KCNQ2/3; IC50 where % efficacy is negative; read-out: Fluorimetry EC50/IC50
pEC50: −log10 of the molar value.
recorded-metric: pEC50

| molecule | pEC50 |
| --- | --- |
| CCSc1nc(N2CC(COC)C2)cc(C)c1C(=O)NCc1cccc(F)c1 | 5.74 |
| CCSc1nc(N2CCO[C@@H](C)C2)cc(C)c1C(=O)NCCCC(C)(C)C | 6.63 |
| Cc1cc(N2CCOCC2)nc(C2CC2)c1C(=O)NCc1ccc(Cl)cc1 | 7.07 |
| CCSc1nc(N2CCOCC2)cc(C)c1C(=O)NCc1ccc(OC(F)(F)F)cc1 | 7.17 |
| CCSc1nc(N(C)CCCOC)cc(C)c1C(=O)NCc1cccc(F)c1 | 6.11 |
| CCSc1nc(N2CCOCC2)cc(C)c1C(=O)NCCCc1cccc(F)c1 | 6.67 |
| CCSc1nc(N2CC(C)OCC2C)cc(C)c1C(=O)NCc1cccc(F)c1 (stereo not drawn) | 6.40 |
| CCSc1nc(N2CCOCC2)cc(C)c1C(=O)NCc1ccccc1 | 6.59 |
| CSc1nc(N2CCOCC2)cc(C)c1C(=O)NCc1ccc(Cl)cc1 | 6.88 |
| CCSc1nc(N2CCOC(C)(C)C2)cc(C)c1C(=O)NCc1cccc(F)c1 | 6.56 |

I: CCSc1nc(N2CCOCC2)cc(C)c1C(=O)NCc1ccc(C#N)c(F)c1
II: COc1nc(N2CCOCC2)cc(C)c1C(=O)NCCCC(C)(C)C
Decide: I or II , by lowest recorded pEC50. Write the label of whichever entry you select.
I

P: CCSc1nc(N2CCOCC2)cc(C)c1C(=O)NCc1ccc(F)c(F)c1
Q: CCSc1nc(N2CCOCC2)cc(C)c1C(=O)NCc1ccc2c(c1)COC2
R: CCSc1nc(N2CCOCC2)cc(C)c1C(=O)NCc1ccc(OC)c(F)c1
Arrange these 3 molecules in increasing order of pEC50. Rank them, then answer with their labels in that order.
Q, R, P

I: CCCc1nc(N2CCOC[C@H]2C)cc(C)c1C(=O)NCCCC(C)(C)C
II: CSc1nc(N2CCOC[C@H]2C)cc(C)c1C(=O)NCc1ccc(F)cc1
Decide: I or II , by lowest recorded pEC50. Write the label of whichever entry you select.
II

// data source = patent US9168259B2
